meta.source: patent US20070117743A1

test system: PANC-1; assay: SRB colorimetric assay of cell growth and viability, PANC-1; type: cell-based, human; settings: 48 hours exposure
Where a SMILES comes first, the peptide text is derived from it. Bridges are numbered along the chain shown (N, C = ends). [ ]: non-standard residue; d: D form. The star is where a group is joined. d(aIle) = CC[C@H](C)[C@@H](N)C(=O)O; d(aThr) = C[C@@H](O)[C@@H](N)C(=O)O; Hexanoyl(5-Me) = CC(C)CCCC(=O)*; Orn = NCCC[C@H](N)C(=O)O; Dhb = C/C=C(\N)C(=O)O
metric: GI50
Lab note: write values as number then unit, every time.

>  <molecule>
C/C=C1\NC(=O)[C@H](Cc2ccccc2)NC(=O)[C@@H](C(C)C)NC(=O)[C@@H]([C@@H](C)CC)NC(=O)[C@H](NC(=O)[C@H](NC(=O)[C@H](CCCN)NC(=O)[C@H]2CCCN2C(=O)[C@H](NC(=O)[C@@H](NC(=O)[C@@H](NC(=O)[C@H](NC(=O)CCCC(C)C)C(C)C)C(C)C)C(C)C)C(C)C)[C@@H](C)CC)[C@@H](C)OC(=O)[C@H](C(C)C)NC1=O [Compound 6, [Val^12]-KF] ({Hexanoyl(5-Me)}-[dV]VV[dV][dP][Orn][d(aIle)][d(aThr)][d(aIle)][dV]F[Dhb]V; ester 8-C)

>  <testTarget>
PANC-1

>  <GI50>
1020 nM

$$$$
>  <molecule>
C/C=C1\NC(=O)[C@H](Cc2ccccc2)NC(=O)[C@@H](C(C)C)NC(=O)[C@@H]([C@@H](C)CC)NC(=O)[C@H](NC(=O)[C@H](NC(=O)[C@H](CCCN)NC(=O)[C@H]2CCCN2C(=O)[C@H](NC(=O)[C@H](CCC(N)=O)NC(=O)[C@@H](NC(=O)[C@H](NC(=O)CCCC(C)C)C(C)C)[C@@H](C)O)C(C)C)[C@@H](C)CC)[C@@H](C)OC(=O)[C@H](C(C)C)NC1=O [Compound 48, [Gln^11]-KF] ({Hexanoyl(5-Me)}-[dV]TQ[dV][dP][Orn][d(aIle)][d(aThr)][d(aIle)][dV]F[Dhb]V; ester 8-C)

>  <testTarget>
PANC-1

>  <GI50>
5100 nM

$$$$
>  <molecule>
C/C=C1\NC(=O)[C@H](Cc2ccccc2)NC(=O)[C@@H](C(C)C)NC(=O)[C@@H]([C@@H](C)CC)NC(=O)[C@H](NC(=O)[C@H](NC(=O)[C@H](CCCN)NC(=O)[C@H]2CCCN2C(=O)[C@H](NC(=O)[C@@H](NC(=O)[C@@H](NC(=O)[C@H]2CCCN2C(=O)CCCC(C)C)[C@@H](C)O)C(C)C)C(C)C)[C@@H](C)CC)[C@@H](C)OC(=O)[C@H](C(C)C)NC1=O [Compound 37, [D-Pro^13]-KF]

>  <testTarget>
PANC-1

>  <GI50>
15.4 nM

$$$$

Now for the molecule whose GI50 we want.
Query GI50 on PANC-1 for C/C=C1\NC(=O)[C@H](Cc2ccccc2)NC(=O)[C@@H](C(C)C)NC(=O)[C@@H]([C@@H](C)CC)NC(=O)[C@H](NC(=O)[C@H](NC(=O)[C@H](CCCN)NC(=O)[C@H]2CCCN2C(=O)[C@H](NC(=O)[C@@H](NC(=O)[C@@H](NC(=O)[C@@H](CC(C)C)NC(=O)CCCC(C)C)[C@@H](C)O)C(C)C)C(C)C)[C@@H](C)CC)[C@@H](C)OC(=O)[C@H](C(C)C)NC1=O [Compound 35, [D-Leu^13]-KF]
751 nM
